- test summary: Hydrophobicity: retention time during reverse phase HPLC
- Format: physicochemical
- conditions used: Acquity CSH C18; pH 7.2 buffer/CH3CN gradient; 40° C.
*: point of attachment. Lauroyl = CCCCCCCCCCCC(=O)*
Task for the reader: assign each of the following substances its reported RT (retention time during reverse phase HPLC as a measure of hydrophobicity).
The reply should consist of the numeric value with the unit placed after it.

Please give RT (retention time during reverse phase HPLC as a measure of hydrophobicity) for each item listed below.
1. N-dodecanoyl-Ala-Ala-Pro-DPhe-OH [Example 4]
2. N-dodecanoyl-γGlu-Ala-Ala-Pro-Tyr-OH [Example 97]
3. N-dodecanoyl-Aib-Aib-Pro-Phe-OH [Example 7]
4. N-dodecanoyl-Gln-Ala-Ala-Pro-Tyr-OH [Example 102]
5. N-tetradecanoyl-βAla-Ala-Pro-Phe-OH [Example 9]
6. N-dodecanoyl-Pro-Ala-Pro-Tyr-OH (Lauroyl-PAPY-OH; SMILES CCCCCCCCCCCC(=O)N1CCC[C@H]1C(=O)N[C@@H](C)C(=O)N1CCC[C@H]1C(=O)N[C@@H](Cc1ccc(O)cc1)C(=O)O) [Example 49]
7. N-dodecanoyl-Ala-Ala-Ala-Pro-Tyr-OH [Example 56]

6.89 min
3.79 min
8.06 min
4.82 min
8.73 min
6.2 min
5.74 min
